The measured values listed here are drawn from patent US20210284734A1.

TESTED ON: T1, His-tagged human PD-1 ECD (human, UniProt Q15116 25-170)
T1 construct: bought from Acro Biosystems; not shown: His tag
T1 sequence (Q15116 25-170): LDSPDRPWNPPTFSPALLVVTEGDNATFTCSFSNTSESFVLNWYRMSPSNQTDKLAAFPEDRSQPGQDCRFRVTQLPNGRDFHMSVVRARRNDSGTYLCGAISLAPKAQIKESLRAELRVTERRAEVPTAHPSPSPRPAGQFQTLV
TEST SUMMARY: SPR, IgG captured, monovalent PD-1 ECD analyte
OBSERVATION TYPE: Kd (nM)
Write the value in nM as a bare number.

Prompt line: Find the recorded Kd belonging to 12865.15377 (antibody, human IgG1, lambda, L234A L235A, V domains shown, humanized, IgG1 LALA, lambda) VH: EVQLLESGGGLVQPGGSLRLSCAASGFDFSDHGMQWVRQAPGKGLEYVGVIDTTGRYTYYAPAVKGRATISRDNSKNTLYLQMNSLRAEDTAVYYCAKTTCVGGYLCNTVGSIDAWGQGTLVTVSS VL: SYELTQDPAVSVALGQTVRITCSGGGSSSYYGWYQQKPGQAPVTVIYDDTNRPSGIPDRFSGSSSGNTASLTITGAQAEDEADYYCGGYEGSSHAGIFGSGTKVTVLG and report it.
Response line: 0.558
